conditions: 392.84 K; Liquid
Reported values of vapor or sublimation pressure for individual entries
ENDPOINT: vapor or sublimation pressure (kPa)

[
  {
    "COMPOUND": "COC(F)(F)C(F)(F)C(F)F",
    "ENDPOINT": "vapor or sublimation pressure",
    "MEASUREMENT UNIT": "kPa",
    "VALUE REPORTED": 458.8
  },
  {
    "COMPOUND": "FC(C(F)(F)F)C(F)(F)OCC(F)(F)F (centres undefined)",
    "ENDPOINT": "vapor or sublimation pressure",
    "MEASUREMENT UNIT": "kPa",
    "VALUE REPORTED": 408
  },
  {
    "COMPOUND": "FC(F)C(F)(F)OCC(F)(F)C(F)(F)F",
    "ENDPOINT": "vapor or sublimation pressure",
    "MEASUREMENT UNIT": "kPa",
    "VALUE REPORTED": 436.3
  },
  {
    "COMPOUND": "CCOC(F)(F)C(F)(F)C(F)(F)C(F)(F)F",
    "ENDPOINT": "vapor or sublimation pressure",
    "MEASUREMENT UNIT": "kPa",
    "VALUE REPORTED": 349.2
  }
]

====

conditions: Liquid; Visual observation in an unstirred cell

[
  {
    "MOLECULE": "CC(F)(F)Cl",
    "MEASUREMENT UNIT": "K",
    "Critical temperature": 410.3
  },
  {
    "MOLECULE": "FC(F)(F)COCC(F)(F)F",
    "MEASUREMENT UNIT": "K",
    "Critical temperature": 476.31
  },
  {
    "MOLECULE": "FC(C(F)(F)F)C(F)(F)OCC(F)(F)F (stereo not drawn)",
    "MEASUREMENT UNIT": "K",
    "Critical temperature": 475.74
  },
  {
    "MOLECULE": "FC(F)COC(F)(F)C(F)F",
    "MEASUREMENT UNIT": "K",
    "Critical temperature": 501.08
  },
  {
    "MOLECULE": "FC(F)C(F)(F)OCC(F)(F)C(F)(F)F",
    "MEASUREMENT UNIT": "K",
    "Critical temperature": 473.01
  },
  {
    "MOLECULE": "FC(F)OCC(F)(F)C(F)(F)F",
    "MEASUREMENT UNIT": "K",
    "Critical temperature": 455.1
  },
  {
    "MOLECULE": "COCC(F)(F)C(F)F",
    "MEASUREMENT UNIT": "K",
    "Critical temperature": 505.35
  },
  {
    "MOLECULE": "FC(C(F)(F)F)C(F)(F)OCC(F)(F)C(F)(F)F (stereo not drawn)",
    "MEASUREMENT UNIT": "K",
    "Critical temperature": 486.48
  }
]

====

conditions: Liquid
Numbers after ± are expanded uncertainties.

[
  {
    "MOLECULE": "FC(F)C(F)(F)COC(F)(F)C(F)C(F)(F)F (centres undefined) [1,1,1,2,3,3-hexafluoro-3-(2,2,3,3-tetrafluoropropoxy)propane]",
    "Critical temperature": "516.21 ± 0.31 K"
  },
  {
    "MOLECULE": "COCC(F)(F)C(F)(F)C(F)(F)C(F)F [1,1,2,2,3,3,4,4-octafluoro-5-methoxypentane]",
    "Critical temperature": "546.1 ± 0.31 K"
  },
  {
    "MOLECULE": "COC(F)(F)C(F)(F)C(F)F [1,1,2,2,3,3-hexafluoro-1-methoxypropane]",
    "Critical temperature": "486.98 ± 0.31 K"
  },
  {
    "MOLECULE": "FC(F)OCC(F)(F)F [1,1,1-trifluoro-2-(difluoromethoxy)ethane]",
    "Critical temperature": "444.88 ± 0.31 K"
  }
]
